Each entry below carries its recorded TGI.
- System: CCRF-CEM leukemia
- TEST_PROTOCOL: NCI tumour cell line growth inhibition, 48 h

Answered cases to consult:
# COMPOUND, RECORDED_MEASUREMENT
data = [
    ("C[C@H](CN1CC(=O)NC(=O)C1)N1CC(=O)NC(=O)C1", "> 100 µM"),
    ("Cn1c(N=[N+]=[N-])cc(=O)n(C)c1=O", "> 100 µM"),
    ("Oc1ccc2ccccc2c1C1NN=C(c2ccccc2)S1 (stereo unspecified)", "> 100 µM"),
]

Proceeding to the next compound to report its TGI.
Prompt line: State its TGI: `COc1nc2ccc(CNc3ccc(C(=O)O)cc3)cc2nc1OC`
Response line: > 10 µM

---

- Tested on: A549 NSCLC
- TEST_PROTOCOL: NCI tumour cell line growth inhibition, 48 h; in the data active = GI50 below about 0.43 µM; inactive = the rest
Your reply should match one of these outcome classes. label 1 = active, label 0 = inactive

# COMPOUND, MEASURED_ON, LABEL
data = [
    ("C[C@]1(C(=O)O)N[C@H](C(=O)O)CS1", "A549 NSCLC", "label 0"),
    ("CC1(C)N=C(N)N=C(N)N1c1ccc(CCc2ccc(Cl)cc2S(=O)(=O)F)c(Cl)c1", "A549 NSCLC", "label 0"),
    ("CSc1n(Cc2ccc3ccccc3c2)c(C)c[n+]1Cc1ccc2ccccc2c1", "A549 NSCLC", "label 0"),
    ("O=C(NCCN1CCC(O)CC1)c1cc2c(o1)C(=O)c1ccccc1C2=O", "A549 NSCLC", "label 1"),
    ("O=C(O)c1ccc2c3c(ncnc13)-c1ccccc1C2=O", "A549 NSCLC", "label 0"),
]

Prompt line: Outcome logged for `O=C(O)c1ccc([S-])cc1.[Au+].c1ccc(CN2[CH-]N(Cc3ccccc3)C(c3ccccc3)=C2c2ccccc2)cc1` in this assay:
Response line: label 1

Prompt line: Outcome logged for `O=C1C(Cl)=C(Nc2cccc(O)c2)C(=O)N1Cc1ccc(Cl)cc1` in this assay:
Response line: label 0

Prompt line: Outcome logged for `O=C(/C=C/c1cccc([N+](=O)[O-])c1)c1ccc(O)c(CN2CCN(c3cc4c(cc3F)c(=O)c(C(=O)O)cn4C3CC3)CC2)c1` in this assay:
Response line: label 0

Prompt line: Outcome logged for `COc1cc(-c2csc(NC(=O)Nc3cc(C(F)(F)F)cc(C(F)(F)F)c3)n2)cc(OC)c1OC` in this assay:
Response line: label 0

Prompt line: Outcome logged for `Cc1cc([N+](=O)[O-])ccc1NS(=O)(=O)c1cc(Cl)ccc1Cl` in this assay:
Response line: label 0

Prompt line: Outcome logged for O=C(Nc1ccc2[nH]c(C(=O)N3CC(CCl)c4c3cc([N+](=O)[O-])c3ccccc43)cc2c1)c1cc2ccccc2o1 (configuration not stated) in this assay:
Response line: label 0

Prompt line: Outcome logged for `CCCOC(=O)N[C@H]1CCc2cc(OC)c(OC)c(OC)c2-c2ccc(SC)c(=O)cc21` in this assay:
Response line: label 1

---

- System: KM12 colon
- TEST_PROTOCOL: NCI tumour cell line growth inhibition, 48 h
PROPERTY_MEASURED: GI50

Answered cases to consult:
# MOLECULE, RECORDED_MEASUREMENT
measured = [
    ("C=C1C(=O)O[C@@H]2OC3(C)CCC4C(C)CCC1C42OO3 (stereo partly specified)", "2.66 µM"),
    ("CCCCOC(=O)c1ccc(NC(=O)CCl)cc1", "2.07 µM"),
    ("O=C(O)CC(NC(=O)CP(=O)(O)O)C(=O)O.[NH-]C1CCCCC1[NH-].[Pt+2] (stereo unspecified)", "84.1 µM"),
    ("NC(=S)N/N=C/c1ccc(O)cn1", "35 µM"),
    ("O=c1oc(-c2ccccc2)cc2cccc(O)c12", "20.8 µM"),
    ("O=CC(Br)C(Br)c1ccccc1 (stereo unspecified)", "12.6 µM"),
    ("CC1(C)N=C(N)N=C(N)N1c1ccc(CCc2ccc(Cl)cc2S(=O)(=O)F)c(Cl)c1", "4.63 µM"),
    ("COc1ccc(-c2nn(-c3cccc(Cl)c3)cc2-c2c(C#N)c(=O)n3[nH]c(-c4ccc(C)cc4)nc3c2C#N)cc1", "3.39 µM"),
]

Prompt line: State its GI50: Cc1ccc(C(=O)/C(=C\c2ccc([N+](=O)[O-])cc2)S(=O)Cc2ccc(F)cc2)cc1 (stereo unspecified)
Response line: 2.12 µM

Prompt line: State its GI50: `Nc1nc2ccc3[nH]ncc3c2c2c1CCCC2`
Response line: 2.82 µM

Prompt line: State its GI50: `CC1(C)CCC[C@]2(C)c3cc(O)ccc3CC[C@@H]12`
Response line: 14.1 µM
